- TARGET_SYSTEM: human AspH (His6-AspH315–758) (Homo sapiens)
- Construct: N-Terminally His6-tagged human AspH315–758 (His6-AspH315–758) was produced in Escherichia coli BL21 (DE3) cells; made in house; host or cells: Escherichia coli BL21 (DE3), pET-28a(+) vector
- MEASUREMENT_DESCRIPTION: SPE-MS AspH inhibition assay (hFX-CP101-119 substrate hydroxylation)
- Type: biochemical
- TEST_CONDITIONS: AspH-inhibitor screening, Plate 1-duplicate
Where a name gives a salt, the structure may show the parent alone.
# key: entry, value: Plate 1-duplicate (% inhibition)

>  <MOLECULE>
CN(Cc1cnc2nc(N)nc(N)c2n1)c1ccc(C(=O)N[C@@H](CCC(=O)O)C(=O)O)cc1 [Methotrexate]

>  <Plate 1-duplicate (% inhibition) / %>
17.38

$$$$
>  <MOLECULE>
CC1(C)CCC(CN2CCN(c3ccc(C(=O)NS(=O)(=O)c4ccc(NCC5CCOCC5)c([N+](=O)[O-])c4)c(Oc4cnc5[nH]ccc5c4)c3)CC2)=C(c2ccc(Cl)cc2)C1 [Venetoclax, reference compound]

>  <Plate 1-duplicate (% inhibition) / %>
97.31

$$$$
>  <MOLECULE>
CC(C)(C)Cn1c(N)nc2ccc(-c3[nH]c(C(C)(C)C)nc3-c3ccc(F)cc3)nc21

>  <Plate 1-duplicate (% inhibition) / %>
-13.16

$$$$
>  <MOLECULE>
N.N.[Cl][Pt][Cl] [Cisplatin aq]

>  <Plate 1-duplicate (% inhibition) / %>
26.45

$$$$
>  <MOLECULE>
CCc1c(C(=O)C(N)=O)c2c(OCC(=O)O)cccc2n1Cc1ccccc1

>  <Plate 1-duplicate (% inhibition) / %>
8.14

$$$$
>  <MOLECULE>
C/C(=C\c1csc(C)n1)[C@@H]1C[C@@H]2O[C@]2(C)CCC[C@H](C)[C@H](O)[C@@H](C)C(=O)C(C)(C)[C@@H](O)CC(=O)O1

>  <Plate 1-duplicate (% inhibition) / %>
-7.34

$$$$
>  <MOLECULE>
CO[C@@]12[C@H](COC(N)=O)C3=C(C(=O)C(C)=C(N)C3=O)N1C[C@@H]1N[C@@H]12

>  <Plate 1-duplicate (% inhibition) / %>
2.59

$$$$
>  <MOLECULE>
C=CC(=O)N1CCC[C@@H](n2nc(-c3ccc(Oc4ccccc4)cc3)c3c(N)ncnc32)C1

>  <Plate 1-duplicate (% inhibition) / %>
-9.59

$$$$
>  <MOLECULE>
O=C1CN2Cc3c(ccc(Cl)c3Cl)N=C2N1 [Anagrelide]

>  <Plate 1-duplicate (% inhibition) / %>
0.27

$$$$
>  <MOLECULE>
CC(C)C[C@H](NC(=O)CNC(=O)c1cc(Cl)ccc1Cl)B1OC(=O)C(CC(=O)O)(CC(=O)O)O1 [Ixazomib citrate]

>  <Plate 1-duplicate (% inhibition) / %>
72.94

$$$$
>  <MOLECULE>
Cc1cc(Nc2ncc(Cl)c(Nc3ccccc3S(=O)(=O)C(C)C)n2)c(OC(C)C)cc1C1CCNCC1

>  <Plate 1-duplicate (% inhibition) / %>
-39.63

$$$$
>  <MOLECULE>
CC[C@H](Nc1ncnc2[nH]cnc12)c1nc2cccc(F)c2c(=O)n1-c1ccccc1 [CAL-101]

>  <Plate 1-duplicate (% inhibition) / %>
3.08

$$$$
>  <MOLECULE>
Cl.Cn1c(CCCC(=O)O)nc2cc(N(CCCl)CCCl)ccc21 [Bendamustine hydrochloride]

>  <Plate 1-duplicate (% inhibition) / %>
4.93

$$$$
>  <MOLECULE>
O=C(Nc1c[nH]nc1-c1nc2ccc(CN3CCOCC3)cc2[nH]1)NC1CC1

>  <Plate 1-duplicate (% inhibition) / %>
2.46

$$$$
>  <MOLECULE>
CCNC(=O)c1noc(-c2cc(C(C)C)c(O)cc2O)c1-c1ccc(CN2CCOCC2)cc1

>  <Plate 1-duplicate (% inhibition) / %>
-12.32

$$$$
>  <MOLECULE>
O=C1NC(=O)[C@@H](c2cn3c4c(cccc24)CCC3)[C@@H]1c1c[nH]c2ccccc12 [ARQ 197_Tivantinib]

>  <Plate 1-duplicate (% inhibition) / %>
-13.62

$$$$

----------
# key: entry, value: Plate 1-duplicate (% conversion)
- TARGET_SYSTEM: human AspH (His6-AspH315–758) (Homo sapiens)
- Construct: N-Terminally His6-tagged human AspH315–758 (His6-AspH315–758) was produced in Escherichia coli BL21 (DE3) cells; made in house; host or cells: Escherichia coli BL21 (DE3), pET-28a(+) vector
- MEASUREMENT_DESCRIPTION: SPE-MS AspH inhibition assay (hFX-CP101-119 substrate hydroxylation)
- Type: biochemical
- TEST_CONDITIONS: AspH-inhibitor screening, Plate 1-duplicate, substrate conversion
Where a name gives a salt, the structure may show the parent alone.

>  <COMPOUND>
C#Cc1cccc(Nc2ncnc3cc(OCCOC)c(OCCOC)cc23)c1 [Erlotinib hydrochloride]

>  <Plate 1-duplicate (% conversion)>
58.47%

$$$$
>  <COMPOUND>
COc1ccc(Cl)c(Nc2nc3ccccc3nc2NS(=O)(=O)c2cccc(NC(=O)C(C)(C)N)c2)c1 [XL-147]

>  <Plate 1-duplicate (% conversion)>
48.41%

$$$$
>  <COMPOUND>
CC(C)(C)c1cc(NC(=O)Nc2ccc(-c3cn4c(n3)sc3cc(OCCN5CCOCC5)ccc34)cc2)no1 [AC220_Quizartinib]

>  <Plate 1-duplicate (% conversion)>
61.31%

$$$$
>  <COMPOUND>
COc1cccc2c1C(=O)c1c(O)c3c(c(O)c1C2=O)C[C@@](O)(C(=O)CO)C[C@@H]3O[C@H]1C[C@H](N)[C@@H](O)[C@H](C)O1 [Epirubicin hydrochloride]

>  <Plate 1-duplicate (% conversion)>
65.95%

$$$$
>  <COMPOUND>
Cc1c(Cn2c(C)nc3c(C(=O)O)cc(N4CCOCC4)cc32)cccc1C(F)(F)F [GSK2636771]

>  <Plate 1-duplicate (% conversion)>
45.39%

$$$$
>  <COMPOUND>
N.N.O=C([O-])C1(C(=O)[O-])CCC1.[Pt+2] [Carboplatin]

>  <Plate 1-duplicate (% conversion)>
47.52%

$$$$
>  <COMPOUND>
Cc1ccc([N+](=O)[O-])cc1S(=O)(=O)N(C)/N=C/c1cnc2ccc(Br)cn12.Cl [PIK-75 HCl]

>  <Plate 1-duplicate (% conversion)>
52.07%

$$$$

----------
# key: entry, value: Plate 1 (% inhibition)
- TARGET_SYSTEM: human AspH (His6-AspH315–758) (Homo sapiens, UniProt Q12797)
- Construct: N-Terminally His6-tagged human AspH315–758 (His6-AspH315–758) was produced in Escherichia coli BL21 (DE3) cells; made in house; host or cells: Escherichia coli BL21 (DE3), pET-28a(+) vector
- Sequence (Q12797 315-758): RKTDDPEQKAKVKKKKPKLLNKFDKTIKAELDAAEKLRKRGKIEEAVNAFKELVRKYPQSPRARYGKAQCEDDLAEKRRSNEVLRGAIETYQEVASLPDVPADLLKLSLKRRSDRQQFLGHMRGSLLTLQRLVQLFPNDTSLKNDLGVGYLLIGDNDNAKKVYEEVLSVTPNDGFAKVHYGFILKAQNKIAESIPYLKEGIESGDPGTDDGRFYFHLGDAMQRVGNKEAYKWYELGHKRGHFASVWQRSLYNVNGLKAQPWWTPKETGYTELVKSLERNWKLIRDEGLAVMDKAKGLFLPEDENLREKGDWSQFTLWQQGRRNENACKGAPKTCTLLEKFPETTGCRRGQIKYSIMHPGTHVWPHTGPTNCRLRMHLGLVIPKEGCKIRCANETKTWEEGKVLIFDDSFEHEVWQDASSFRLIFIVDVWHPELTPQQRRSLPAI
- MEASUREMENT_DESCRIPTION: SPE-MS AspH inhibition assay (hFX-CP101-119 substrate hydroxylation)
- Type: biochemical
- TEST_CONDITIONS: AspH-inhibitor screening, 384-well Plate 1
Structures can show the parent of a compound that is named as a salt.

>  <COMPOUND>
CC(=O)[C@]1(O)Cc2c(O)c3c(c(O)c2[C@@H](O[C@H]2C[C@H](N)[C@H](O)[C@H](C)O2)C1)C(=O)c1ccccc1C3=O [Idarubicin HCl]

>  <Plate 1 (% inhibition), %>
6.62

$$$$
>  <COMPOUND>
CN(C)C/C=C/C(=O)Nc1cc2c(Nc3ccc(F)c(Cl)c3)ncnc2cc1O[C@H]1CCOC1 [BIBW2992 (Tovok)_Afatinib]

>  <Plate 1 (% inhibition), %>
-24.14

$$$$
>  <COMPOUND>
Cn1cnc2c(F)c(Nc3ccc(Br)cc3Cl)c(C(=O)NOCCO)cc21 [AZD6244 (Selumetinib)]

>  <Plate 1 (% inhibition), %>
5.13

$$$$
>  <COMPOUND>
CC1(C)CCC(c2ccc(Cl)cc2)=C(CN2CCN(c3ccc(C(=O)NS(=O)(=O)c4ccc(N[C@H](CCN5CCOCC5)CSc5ccccc5)c(S(=O)(=O)C(F)(F)F)c4)cc3)CC2)C1 [ABT-263 (Navitoclax)]

>  <Plate 1 (% inhibition), %>
90.19

$$$$
>  <COMPOUND>
CCC(C)(C)C(=O)O[C@H]1C[C@@H](C)C=C2C=C[C@H](C)[C@H](CC[C@@H]3C[C@@H](O)CC(=O)O3)[C@H]21 [Simvastatin]

>  <Plate 1 (% inhibition), %>
-15.63

$$$$
>  <COMPOUND>
CN1CCc2c(c3ccccc3n2Cc2ccc(C(=O)NO)cc2)C1.Cl [Tubastatin A HCl]

>  <Plate 1 (% inhibition), %>
-13.29

$$$$
